- assay_overview: Apparent permeability from basolateral to apical side in MDCK2 cells at 5 uM
- Format: ADME, cell-based, Canis lupus familiaris, MDCK-II
- condition_set: dog, MDCK
# key: entry, value: Papp B→A at 5 µM

# count of solved cases: 3
CC(=O)N[C@@H](Cc1cc(F)cc(F)c1)[C@H](O)CNC1(c2cccc(C(C)(C)C)c2)CCOCC1 = 81 nm/s
CC(=O)N[C@@H](Cc1cc(F)cc(F)c1)[C@H](O)CNC1(c2cccc(C(C)(C)C)c2)CC1 = 50 nm/s
CC(=O)N[C@@H](Cc1cc(F)cc(F)c1)[C@H](O)CNC1(c2cccc(C(C)(CF)CF)c2)CC1 = 168 nm/s

Name the reported Papp B→A at 5 µM value associated with the compound CC(=O)N[C@@H](Cc1cc(F)cc(F)c1)[C@H](O)CNC1(c2cc(C(C)(C)C)ncn2)CCCCC1
265 nm/s

Name the reported Papp B→A at 5 µM value associated with the compound CC(=O)N[C@@H](Cc1cc(F)cc(F)c1)[C@H](O)CN[C@]1(c2cccc(C(C)(C)C(F)F)c2)C[C@H]1C
25 nm/s

Name the reported Papp B→A at 5 µM value associated with the compound CC(=O)N[C@@H](Cc1cc(F)cc(F)c1)[C@H](O)CNC1(c2cnn(CC(C)(C)C)c2)CC1
102 nm/s

Name the reported Papp B→A at 5 µM value associated with the compound CC(=O)N[C@@H](Cc1cc(F)cc(F)c1)[C@H](O)CNC(C)(C)c1cccc(C(C)(C)C)c1
7 nm/s

Name the reported Papp B→A at 5 µM value associated with the compound CC(=O)N[C@@H](Cc1cc(F)cc(F)c1)[C@H](O)CNCc1cccc(C(C)(C)C)c1
13 nm/s

---

- experimental_target: Beta-secretase 1 (Homo sapiens)
- Sequence (P56817 whole entry): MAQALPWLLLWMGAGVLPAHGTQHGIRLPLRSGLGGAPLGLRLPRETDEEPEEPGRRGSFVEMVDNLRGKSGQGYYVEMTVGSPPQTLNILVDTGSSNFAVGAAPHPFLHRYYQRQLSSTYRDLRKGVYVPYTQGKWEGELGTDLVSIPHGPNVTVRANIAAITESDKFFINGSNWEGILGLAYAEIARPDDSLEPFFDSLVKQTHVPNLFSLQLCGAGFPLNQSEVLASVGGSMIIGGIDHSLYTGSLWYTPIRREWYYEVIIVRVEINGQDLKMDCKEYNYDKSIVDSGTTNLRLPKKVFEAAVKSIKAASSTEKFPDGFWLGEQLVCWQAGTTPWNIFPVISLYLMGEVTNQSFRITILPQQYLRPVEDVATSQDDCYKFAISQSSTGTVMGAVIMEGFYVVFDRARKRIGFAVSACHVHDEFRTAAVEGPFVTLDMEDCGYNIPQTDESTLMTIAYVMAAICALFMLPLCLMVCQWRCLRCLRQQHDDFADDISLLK
- assay_overview: Inhibition of recombinant BACE1 purified from Escherichia coli
# key: entry, value: pIC50
Please report pIC50 as the negative decimal logarithm of the molar concentration, giving only the number.

# count of solved cases: 3
CC(=O)N[C@@H](Cc1cc(F)cc(F)c1)[C@H](O)CN[C@]1(c2cccc(C(C)(C)C(F)F)c2)C[C@H]1C = 5.77
CC(=O)N[C@@H](Cc1cc(F)cc(F)c1)[C@H](O)CNC1(c2cccc(-n3cccn3)c2)CC1 = 6.01
CC(=O)N[C@@H](Cc1cc(F)cc(F)c1)[C@H](O)CNC1(c2cccc(C3CCOC3)c2)CCOCC1 (some centres not stated) = 6.54

Name the reported pIC50 value associated with the molecule CC(=O)N[C@@H](Cc1cc(F)cc(F)c1)[C@H](O)CNC1(c2cccc(C(C)(C)CF)c2)CC1
6.54

---

# key: entry, value: Ratio
- assay_overview: Efflux ratio of permeability from basolateral to apical side over apical to basolateral side in MDR1 transfected MDCK2 cells at 5 uM after 2 hrs
- Assay type: ADME, cell-based, Canis lupus familiaris
- condition_set: dog, mdck-ii
Answer as a number with no unit attached.

# count of solved cases: 2
CC(=O)N[C@@H](Cc1cc(F)cc(F)c1)[C@H](O)CN[C@]1(c2cccc(C(C)(C)C(F)F)c2)C[C@H]1C = 2.6
CC(=O)N[C@@H](Cc1cc(F)cc(F)c1)[C@H](O)CNC1(c2cccc(C3CCOC3)c2)CC1 (stereo partly specified) = 8.5

Name the reported Ratio value associated with the compound CC(=O)N[C@@H](Cc1cc(F)cc(F)c1)[C@H](O)CNC1(c2cnn(CC(C)(C)C)c2)CC1
11

Name the reported Ratio value associated with the compound CC(=O)N[C@@H](Cc1cc(F)cc(F)c1)[C@H](O)CNC1(c2cc(C(C)(C)C)ncn2)CCCCC1
20
